# system tested: T1, human IL-1α (human, UniProt P01583 113-271)
# T1 construct: also called IL-1alpha; hIL-1α
# T1 sequence (looked up): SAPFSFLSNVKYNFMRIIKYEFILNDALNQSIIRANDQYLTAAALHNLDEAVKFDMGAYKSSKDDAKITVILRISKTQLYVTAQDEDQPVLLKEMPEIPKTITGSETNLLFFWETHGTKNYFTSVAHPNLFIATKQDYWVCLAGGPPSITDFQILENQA
# test name: Table 62 IC50; RBA presumed
readout type: IC50 (nM)

These recorded examples may help you get a feel for the data.
binder	IC50 (nM)
ABT1-95-4 (other, VK dAb) VL: DIQMTQSPSSLSASVGDRVTITCRASQPIVRNLRWYQQKPGKAPKLLIYSSSYLQSGVPSRFSGSGSGTDFTLTISSLQPEDFATYHCQQGYRWPVTFGQGTKVEIKR	0.7
ABT1-95-87 (other, VK dAb) VL: DIQMTQSPSSLSASVGDRVTITCRASQPIVRNLRWYQQKPGKAPKLLIYSSSRLEPGVPSRFSGSGSGTDFTLTISSLQPEDFATYHCQQGYRWPVTFGQGTKVEIKR	0.2

1. ABT1-95-72 (other, VK dAb) VL: DIQMTQSPSSLSASVGDRVTITCRASQPIVRNLRWYQQKPGKAPKLLIYHSSYLEPGVPSRFSGSGSGTDFTLTISSLQPEDFATYHCQQGYRWPVTFGQGTKVEIKR
2. ABT1-141-48 (other, VK dAb) VL: DIQMTQSPSSLSASVGDRVTITCRASQWIQKQLAWYQQKPGKAPKLLIFSSSHLQSGVPSRFSGSGSGTDFTLTISSLQPEDFASYYCQQHLRVPMTFGQGTKVEIKR
Ask: Lower value for measured IC50? Options: 1 , 2 Kindly state the label of the option you pick.
Reply: 1
(1: 1 nM, 2: 3 nM)

I. ABT1-95-55 (other, VK dAb) VL: DIQMTQSPSSLSASVGDRVTITCRASQPIVHNLRWYQQKPGKAPKLLIYSSSYLEPGVPSRFSGSGSGTDFTLTISSLQPEDFATYHCQQGYRWPVTFGQGTKVEIKR
II. ABT1-141-78 (other, VK dAb) VL: DIQMTQSPSSLSASVGDRVTITCRANQWIQKQLAWYQQKPGKAPKLLIYSSSHLQSGVPSRFSGSGYGTDFTLTISSLQPQDFATYYCQQHLRVPMTFGQGTKVEIKR
Ask: Which has the higher IC50, I or II ? Bench note: the answer is the label of the chosen record.
Reply: II
(II: 3 nM, I: 0.6 nM)
